- TEST TARGET: T1, CEACAM5 (CD66e) on tumour cells (human, UniProt P06731 35-685, glycosylated (natural, as on tumour cells))
- T1 construct: whole, on cells; One molecule for CEACAM5 on all three cell lines; the cell line is named under assay; also called natural CEACAM5 antigen; Lovo cells
- T1 sequence (looked up): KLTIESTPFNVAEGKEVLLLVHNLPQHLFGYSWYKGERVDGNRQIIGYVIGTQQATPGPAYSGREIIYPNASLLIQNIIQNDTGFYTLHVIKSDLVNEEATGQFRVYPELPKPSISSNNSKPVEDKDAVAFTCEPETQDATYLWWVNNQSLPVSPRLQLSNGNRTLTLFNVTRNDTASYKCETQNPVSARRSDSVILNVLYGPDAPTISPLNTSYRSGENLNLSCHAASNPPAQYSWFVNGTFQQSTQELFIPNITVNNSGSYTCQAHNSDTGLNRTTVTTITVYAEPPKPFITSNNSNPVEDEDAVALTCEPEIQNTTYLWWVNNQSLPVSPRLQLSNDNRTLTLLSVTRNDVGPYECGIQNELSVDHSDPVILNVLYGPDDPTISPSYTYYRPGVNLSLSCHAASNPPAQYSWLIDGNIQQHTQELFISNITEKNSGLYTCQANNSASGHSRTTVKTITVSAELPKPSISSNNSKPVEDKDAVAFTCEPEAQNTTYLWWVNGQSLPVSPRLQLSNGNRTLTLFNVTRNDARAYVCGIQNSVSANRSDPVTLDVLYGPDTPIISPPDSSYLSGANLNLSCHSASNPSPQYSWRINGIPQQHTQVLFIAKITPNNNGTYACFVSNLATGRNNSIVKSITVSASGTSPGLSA
- ASSAY EXPLANATION: flow cytometry on KATO3 cells, anti-human IgG Fc-APC
EC50 overview
MEASURE: EC50 (µg/mL)

Humanized antibody hAb-003 (antibody, V domains shown, also called hM19-1) VH: EVQLVESGGGLVQPGGSLRLSCAASGFTFTDYFMNWVRQAPGKALEWVGQMRNKVNGDTTEYAESVEGRFTISRDDSKNSLYLQMNSLKTEDTAVYYCARDKGIAYYFDYWGQGTLVTVSS VL: DIQMTQSPSSLSASVGDRVTITCRASSSVSYIHWYQQKPGKSPKPLIYGTSNLASGVPSRFSGSGSGTDFTLTISSLQPEDAATYYCQQWSSNLSTFGQGTKLEIK: 2.7
Humanized antibody hAb-017 (antibody, V domains shown, also called hM19-15) VH: EVQLVESGGGLVQPGGSLRLSCAASGFTFTDYYMDWVRQAPGKALEWVGFTRNKVNGDTTEYAASVKGRFTISRDDSKNSLYLQMNSLKTEDTAVYYCARDKGIAYYFDYWGQGTLVTVSS VL: EIVLTQSPATLSASPGERATLSCRASSSVSYIHWYQQKPGQSPRPLIYGASNLASGVPARFSGSGSGTDFTLTISSLEPEDAAVYYCQQWSSNLSTFGGGTKVEIK: 2.2
Humanized antibody hAb-009 (antibody, V domains shown, also called hM19-7) VH: EVQLVESGGGLVQPGGSLRLSCAASGFTFTDYYMNWVRQAPGKALEWLGFIRNKVNGDTTEYAASVKGRFTISRDDSKNSLYLQMNSLKTEDTAVYYCARDKGIAYYFDYWGQGTLVTVSS VL: EIVLTQSPATLSASPGERATLSCRASQSVSYIHWYQQKPGQSPRPWIHGTSNLATGVPARFSGSGSGTDFTLTISSLEPEDAAVYYCQQWSSNLSTFGGGTKVEIK: 1.8
